B1: Azoarcus group I ribozyme (parent)
chain: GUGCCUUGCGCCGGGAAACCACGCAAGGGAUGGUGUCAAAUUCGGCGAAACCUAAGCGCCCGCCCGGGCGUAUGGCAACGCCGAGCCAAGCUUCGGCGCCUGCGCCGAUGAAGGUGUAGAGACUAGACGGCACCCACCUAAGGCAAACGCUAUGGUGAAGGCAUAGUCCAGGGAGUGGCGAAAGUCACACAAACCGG

Variants of: B1
Assay: reverse-splicing fitness (ratio to wild type); higher = more active; in vitro selection; Mg2+ level not given
Decision: reverse-splicing fitness >= 0.009 yields Met, all other cases yield Not met.

| Variant spec | Qualitative label |
| --- | --- |
| C82U A111G A120C A145G C150A U176G | Not met |
| C82A A111C A120C A145G C169A U176A | Met |
| C82U A111G A120C A145G C150G U176A | Not met |
| C82U C150G U176C | Met |
| C82A A120G A145C C150A C169U | Not met |
| A111U A120G A145U C150A C169G U176C | Met |
| A111C A120U A145U C150A C169U U176C | Not met |
| C82U A120G A145U C150G U176C | Not met |
| C82U A111C A120C C150U U176G | Not met |
| C82A A111U C150A C169U | Met |
| C82G A120C A145U C150G C169U U176G | Not met |
| A120U A145U C169G U176C | Met |
| C82G A111C A145G C150G | Met |
| C82A A145U C150G C169G U176C | Not met |
| C82U A120U A145U C150U C169A U176G | Not met |
| C82U A111C A145C C150G C169G U176G | Not met |
| A111C A120C C150U C169U | Met |
| C82U A111G A145C C150G U176A | Met |
| C82G A111C A120G A145C C150U C169G U176C | Met |
| A111U C169A U176A | Met |
| C82A A120U A145C C150U C169U U176C | Not met |
| C82G A111C A145U C150A | Met |
| C82U A111C A145G C150G C169A U176C | Met |
| C82U A111U A145U C150A C169G U176G | Not met |
| C82G A111U A120G A145U C150U C169U | Met |
| C82U A111G A120C A145G C150A C169A U176C | Met |
| C82G A111U A145U C150A C169G U176A | Met |
| C82U A111C A120U C150U U176A | Not met |
| A111U A120G A145C C169A U176C | Met |
| C82G A111C A120U A145U C150U C169A | Not met |
| C82A A120U A145C C169U U176A | Not met |
| C82U A111G A120U A145U C169U | Not met |
| C82G A111C A120C A145C C169U U176A | Met |
| C82U A120G A145G C150G C169U U176C | Met |
| C82A A111U A120U A145C C150U C169U U176G | Not met |
| A111U C150U C169G U176G | Not met |
| A111C C150A C169U U176A | Met |
| C82G A111C A120U A145G C150A | Met |
| C82A A120U A145G C150A C169G | Not met |
| A145U C150U C169A | Met |
| C82A A111C A120G C150G C169G U176C | Not met |
| C82U A111G A145C C150A U176C | Met |
| C82A A111U A120C A145U C150A C169U | Met |
| C82U A111U A120C A145U C150G C169G | Not met |
| C82A A111G A145C C150U C169U U176G | Not met |
| C82G A120C A145C C150G C169G U176A | Met |
